- Test system: Yersinia pseudotuberculosis
- Method Notes: growth AUC normalised to DMSO control (fraction of control); higher = less growth inhibition, active = hit call of the paper
- Setup Conditions: 20 µM
Counter-ions that a name gives are not always drawn.
Measured Endpoint: growth AUC normalised to DMSO control
Lab note: jot down the number only; don't add units.

Consider the worked cases shown below.
Compound	growth AUC normalised to DMSO control
Clc1ccc(COC(Cn2ccnc2)c2ccc(Cl)cc2Cl)cc1 (centres undefined) [Econazole nitrate]	1.01
N[C@@H](Cc1ccc(O)c(O)c1)C(=O)O	0.99

I'd like to know its growth AUC normalised to DMSO control. The compound in question is O=C(O)c1cn(C2CC2)c2cc(N3CCNCC3)c(F)cc2c1=O [Ciprofloxacin hydrochloride monohydrate]
0.0762

I'd like to know its growth AUC normalised to DMSO control. The compound in question is CCN1CCCC(OC(=O)C(c2ccccc2)c2ccccc2)C1 (centres undefined) [Piperidolate hydrochloride]
0.967

====

Listing: growth AUC normalised to DMSO control of selected compounds
- Tested on: S. enterica typhimurium tolC KO;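 further: active when median AUC fell below 0.1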
- Method Notes: growth AUC normalised to DMSO control (median) (fraction of control); higher = less growth inhibition, active = hit call of the paper
- Setup Conditions: 20 µM
Counter-ions that a name gives are not always drawn.
Lab note: jot down the number only; don't add units.

Consider the worked cases shown below.
Compound	growth AUC normalised to DMSO control
O=C(Oc1cccc2cccnc12)c1ccccc1	0.968
NC(=O)NC1NC(=O)NC1=O (centres undefined)	0.998
N[C@@H]1CONC1=O	1
CC(C)(C)NC[C@@H](O)COc1cccc2c1CCCC2=O [(+) Levobunolol hydrochloride]	0.993
CCc1c(C)[nH]c2c1C(=O)C(CN1CCOCC1)CC2 (centres undefined) [Molindone hydrochloride]	1.01

I'd like to know its growth AUC normalised to DMSO control. The compound in question is CC(C)NNC(=O)c1ccncc1 [Iproniazide phosphate]
0.992

I'd like to know its growth AUC normalised to DMSO control. The compound in question is CC(=O)[C@H]1CC[C@H]2[C@@H]3CC=C4C[C@@H](O)CC[C@]4(C)[C@H]3CC[C@]12C
0.954

I'd like to know its growth AUC normalised to DMSO control. The compound in question is O=C(Nc1ccc([N+](=O)[O-])cc1Cl)c1cc(Cl)ccc1O [Niclosamide]
0.00688

I'd like to know its growth AUC normalised to DMSO control. The compound in question is C=CCN1CCCC1CNC(=O)c1cc2nn[nH]c2cc1OC (centres undefined) [Alizapride hydrochloride]
1

====

- System: S. enterica typhimurium tolC KO;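 further: active when median AUC fell below 0.1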
- Method Notes: growth AUC normalised to DMSO control (median) (fraction of control); higher = less growth inhibition, active = hit call of the paper
- Setup Conditions: 20 µM
Counter-ions that a name gives are not always drawn.
Listing: growth AUC normalised to DMSO control of selected molecules
Lab note: jot down the number only; don't add units.

Consider the worked cases shown below.
Molecule	growth AUC normalised to DMSO control
Cc1c(-c2ccccc2)oc2c(C(=O)OCCN3CCCCC3)cccc2c1=O [Flavoxate hydrochloride]	0.952
CCCCc1oc2ccccc2c1C(=O)c1cc(I)c(OCCN(CC)CC)c(I)c1 [Amiodarone hydrochloride]	1.02
CC(=O)OCC(=O)[C@@]1(OC(C)=O)[C@@H](C)C[C@H]2[C@@H]3C[C@H](F)C4=CC(=O)C=C[C@]4(C)[C@@]3(F)[C@@H](O)C[C@@]21C [Diflorasone Diacetate]	1
OC[C@H]1O[C@@H](c2ccc(Cl)c(Cc3ccc(O[C@H]4CCOC4)cc3)c2)[C@H](O)[C@@H](O)[C@@H]1O	0.992

I'd like to know its growth AUC normalised to DMSO control. The molecule in question is CCc1cc(Cl)c(OC)c(C(=O)NC[C@@H]2CCCN2CC)c1O [(S,-) Eticlopride hydrochloride]
0.947
